# assayedSystem: GORASP1, Q9BQQ3
# Sequence (Q9BQQ3 1-208): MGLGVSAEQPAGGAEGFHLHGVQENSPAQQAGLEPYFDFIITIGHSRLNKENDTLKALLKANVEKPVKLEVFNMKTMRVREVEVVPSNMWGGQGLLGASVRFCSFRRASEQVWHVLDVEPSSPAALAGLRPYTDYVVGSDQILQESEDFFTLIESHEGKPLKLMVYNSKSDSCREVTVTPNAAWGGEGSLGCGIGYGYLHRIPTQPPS
# protocolDescription: holdup assay
# Parameters: key: below the threshold = too weak to quantify, mostly under pKd 3.1 to 4
# measurementContext: plain residues with an end cap or a label only (N-terminal biotin on a linker: ado-ado)
parameter: pKd

Worked set:
{"columns": ["binder", "parameter", "resultValue"],
 "data": [
  ["SSALYGESDL [ACTN2, P35609]", "pKd", "below the threshold"],
  ["LSEFKAMDSI [CTNNA1, P35221]", "pKd", "below the threshold"],
  ["EKKTLIGIKL [GOT1L1, Q8NHS2]", "pKd", "below the threshold"],
  ["QKNRKAQEDL [CES3, Q6UWW8]", "pKd", "below the threshold"],
  ["NHSSSPETTA [TRMT13, Q9NUP7]", "pKd", "below the threshold"]
]}

**Query** // pKd lookup, key: SKENVQETQI [LRRC4B, Q9NT99]
**Result** below the threshold

**Query** // pKd lookup, key: VNKSKLLTDV [KCNA1, Q09470]
**Result** below the threshold

**Query** // pKd lookup, key: KKMPSIESDV [GRIN2A, Q12879]
**Result** below the threshold
